Recorded inhibition at 1 µM for the following compounds
STUDY_SYSTEM: FAAH (Mus musculus, UniProt O08914)
Construct: mouse brain membrane fraction or cell lysates for mouse assays; from tissue
Sequence (O08914 1-579): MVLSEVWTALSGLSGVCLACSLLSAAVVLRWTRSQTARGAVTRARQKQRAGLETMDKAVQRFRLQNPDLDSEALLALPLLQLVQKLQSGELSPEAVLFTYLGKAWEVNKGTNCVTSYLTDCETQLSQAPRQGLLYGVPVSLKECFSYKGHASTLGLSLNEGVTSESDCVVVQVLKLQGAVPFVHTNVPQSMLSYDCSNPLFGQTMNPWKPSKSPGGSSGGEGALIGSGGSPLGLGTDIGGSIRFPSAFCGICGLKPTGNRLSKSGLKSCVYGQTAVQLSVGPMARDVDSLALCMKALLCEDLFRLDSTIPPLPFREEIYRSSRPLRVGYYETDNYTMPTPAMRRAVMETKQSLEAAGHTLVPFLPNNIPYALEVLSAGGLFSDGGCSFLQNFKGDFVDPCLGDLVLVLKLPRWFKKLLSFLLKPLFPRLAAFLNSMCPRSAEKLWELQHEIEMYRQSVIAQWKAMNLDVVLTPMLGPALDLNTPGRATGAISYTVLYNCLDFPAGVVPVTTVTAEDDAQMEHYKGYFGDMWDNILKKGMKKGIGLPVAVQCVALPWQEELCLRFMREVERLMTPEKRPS
ASSAY_INFO: In vitro competitive activity-based protein profiling, mouse FAAH
Type: biochemical
STATED_CONDITIONS: 1 μM, read-out: FAAH % inh. 1 μM (mouse)

## Input Output reported inhibition at 1 µM of the compound CN(Cc1ccc(C(F)(F)F)cc1)[C@@H]1C[C@@H]2CN(C(=O)n3cc(C(=O)N4CCOCC4)cn3)C[C@@H]2C1 on FAAH (Mus musculus, UniProt O08914).
## Output ≥ 75%

## Input Output reported inhibition at 1 µM of the compound NC(=O)c1cnn(C(=O)N2CCC3(CCN(Cc4ccc(C(F)(F)F)c(N5CCOCC5)c4)C3)C2)c1 (stereo not drawn) on FAAH (Mus musculus, UniProt O08914).
## Output ≥ 75%

## Input Output reported inhibition at 1 µM of the compound Cc1cc(N2CCOCC2)ccc1CN1CCC2(CCN(C(=O)n3cc(Cl)cn3)C2)C1 (stereo not drawn) on FAAH (Mus musculus, UniProt O08914).
## Output ≥ 75%

Others:
## Input Output reported inhibition at 1 µM of the compound O=C(O)c1cnn(C(=O)N2CCC3(CCN(Cc4cccc(Oc5ccccc5)c4)C3)C2)c1 (stereo not drawn) on FAAH (Mus musculus, UniProt O08914).
## Output ≥ 75%

## Input Output reported inhibition at 1 µM of the compound O=C(c1cnn(C(=O)N2CCC3(CCN(Cc4cccc(C(F)(F)F)c4)C3)C2)c1)N1CCN(C2CC2)CC1 (stereo not drawn) on FAAH (Mus musculus, UniProt O08914).
## Output 50 to 75%

## Input Output reported inhibition at 1 µM of the compound CN(Cc1ccccc1Cl)[C@@H]1C[C@@H]2CN(C(=O)n3cc(C(=O)N4CCCC4)cn3)C[C@@H]2C1 on FAAH (Mus musculus, UniProt O08914).
## Output ≥ 75%

## Input Output reported inhibition at 1 µM of the compound O=C(N1CC2CN(Cc3cccc(F)c3)CC2C1)n1cc(C(F)(F)F)cn1 (stereo not drawn) on FAAH (Mus musculus, UniProt O08914).
## Output ≥ 75%

## Input Output reported inhibition at 1 µM of the compound O=C(N1CCC2(CCN(Cc3ccccc3C(F)(F)F)C2)C1)n1cc(C(F)(F)F)cn1 (stereo not drawn) on FAAH (Mus musculus, UniProt O08914).
## Output ≥ 75%

###

STUDY_SYSTEM: MAGL (Mus musculus, UniProt O35678)
Construct: mouse brain membrane fraction or cell lysates for mouse assays; from tissue
Sequence (O35678 whole entry): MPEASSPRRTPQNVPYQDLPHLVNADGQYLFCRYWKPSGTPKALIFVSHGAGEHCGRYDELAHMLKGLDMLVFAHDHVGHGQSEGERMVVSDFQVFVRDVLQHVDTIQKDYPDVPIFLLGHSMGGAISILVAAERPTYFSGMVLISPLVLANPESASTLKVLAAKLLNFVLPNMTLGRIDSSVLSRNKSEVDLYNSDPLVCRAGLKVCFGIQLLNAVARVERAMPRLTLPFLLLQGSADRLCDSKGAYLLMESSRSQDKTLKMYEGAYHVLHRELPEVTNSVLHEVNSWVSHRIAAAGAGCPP
ASSAY_INFO: In vitro competitive activity-based protein profiling, mouse MAGL
Format: biochemical
STATED_CONDITIONS: 1 μM, read-out: MAGL % inh. 1 μM (mouse)
REPORTED_METRIC: inhibition at 1 µM

A selection of reference data follows.
## Input Kindly indicate its recorded inhibition at 1 µM. Item: O=C(N1CC2CN(Cc3ccc(Cl)cc3N3CCC4(CCOCC4)C3)CC2C1)n1cc(Cl)cn1 (stereo not drawn)
## Output ≥ 75%

## Input Kindly indicate its recorded inhibition at 1 µM. Item: CN(Cc1cccc(Oc2ccccc2)c1)[C@H]1C[C@@H]2CN(C(=O)n3cc(Cl)cn3)C[C@@H]2C1
## Output ≥ 75%

Others:
## Input Kindly indicate its recorded inhibition at 1 µM. Item: NC(=O)c1cnn(C(=O)N2CCC3(CCN(Cc4cc(Cl)cc(C(F)(F)F)c4)C3)C2)c1 (stereo not drawn)
## Output ≥ 75%

## Input Kindly indicate its recorded inhibition at 1 µM. Item: O=C(c1cnn(C(=O)N2CC3CN(Cc4ccc(Cl)cc4)CC3C2)c1)N1CCCCC1 (stereo not drawn)
## Output 25 to 50%

## Input Kindly indicate its recorded inhibition at 1 µM. Item: O=C(N1CCC2(CCN(Cc3cccc(F)c3)C2)C1)n1cc(C(F)(F)F)cn1 (stereo not drawn)
## Output ≥ 75%

## Input Kindly indicate its recorded inhibition at 1 µM. Item: O=C(O)c1cnn(C(=O)N2CCC3(CCN(Cc4cccc(Oc5ccccc5)c4)C3)C2)c1 (stereo not drawn)
## Output 0 to 25%

## Input Kindly indicate its recorded inhibition at 1 µM. Item: O=C(O)c1cnn(C(=O)N2CCC3(CCN(Cc4ccc(Cl)cc4)C3)C2)c1 (stereo not drawn)
## Output 0 to 25%

## Input Kindly indicate its recorded inhibition at 1 µM. Item: Cc1cccc(CN2CCC3(CCN(C(=O)n4cc(C(F)(F)F)cn4)C3)C2)c1 (stereo not drawn)
## Output ≥ 75%

## Input Kindly indicate its recorded inhibition at 1 µM. Item: CN(Cc1ccc(Oc2ccccc2)cc1)[C@H]1C[C@@H]2CN(C(=O)n3cc(Cl)cn3)C[C@@H]2C1
## Output ≥ 75%

###

Recorded pIC50 for the following compounds
STUDY_SYSTEM: MAGL (Mus musculus, UniProt O35678)
Construct: mouse brain membrane fraction or cell lysates for mouse assays
ASSAY_INFO: In vitro competitive activity-based protein profiling, mouse MAGL
pIC50: −log10 of the molar value.

## Input Kindly indicate its recorded pIC50. Item: O=C(N1C[C@H]2C[C@@H](NCc3ccccc3Cl)C[C@H]2C1)n1cc(Cl)cn1 [Example 61]
## Output 6.00 to 7.00

Others:
## Input Kindly indicate its recorded pIC50. Item: COc1ccc(CN2CCC3(CCN(C(=O)n4cc(C(F)(F)F)cn4)C3)C2)cc1 (stereo not shown) [Example 167]
## Output 6.00 to 7.00

## Input Kindly indicate its recorded pIC50. Item: NC(=O)c1cnn(C(=O)N2CCC3(CCN(Cc4cc(Cl)cc(C(F)(F)F)c4)C3)C2)c1 (stereo not shown) [Example 43]
## Output ≥ 7.00

## Input Kindly indicate its recorded pIC50. Item: NC(=O)c1cnn(C(=O)N2CC3CN(Cc4ccc(C(F)(F)F)cc4)CC3C2)c1 (stereo not shown) [Example 18]
## Output ≥ 7.00

###

STUDY_SYSTEM: FAAH (Mus musculus)
Construct: mouse brain membrane fraction or cell lysates for mouse assays; from tissue
ASSAY_INFO: In vitro competitive activity-based protein profiling, mouse FAAH
Assay type: biochemical
STATED_CONDITIONS: 1 μM, read-out: FAAH % inh. 1 μM (mouse)
REPORTED_METRIC: inhibition at 1 µM

A selection of reference data follows.
## Input Kindly indicate its recorded inhibition at 1 µM. Item: CN(Cc1cccc(C(F)(F)F)c1)[C@@H]1C[C@@H]2CN(C(=O)n3cc(Cl)cn3)C[C@@H]2C1
## Output ≥ 75%

## Input Kindly indicate its recorded inhibition at 1 µM. Item: O=C(c1cnn(C(=O)N2CC3CN(Cc4cc(Cl)ccc4Cl)CC3C2)c1)N1CCN(C2CC2)CC1 (stereo not drawn)
## Output 0 to 25%

## Input Kindly indicate its recorded inhibition at 1 µM. Item: COc1cccc(CN2CC3CN(C(=O)n4cc(C(F)(F)F)cn4)CC3C2)c1 (stereo not drawn)
## Output ≥ 75%

## Input Kindly indicate its recorded inhibition at 1 µM. Item: O=C(N1CC2CN(Cc3ccc(F)cc3)CC2C1)n1cc(C(F)(F)F)cn1 (stereo not drawn)
## Output ≥ 75%

## Input Kindly indicate its recorded inhibition at 1 µM. Item: O=C(c1cnn(C(=O)N2CC3CN(Cc4cc(Cl)ccc4Cl)CC3C2)c1)N1CCOCC1 (stereo not drawn)
## Output ≥ 75%

Kindly consider the entry below.
## Input Kindly indicate its recorded inhibition at 1 µM. Item: CN(Cc1cc(N2CCCC2)cc(C(F)(F)F)c1)[C@@H]1C[C@@H]2CN(C(=O)n3cc(C(N)=O)cn3)C[C@@H]2C1
## Output ≥ 75%

The values you see were collected from patent US10385057B2.
